System Name: MMP-3h (Homo sapiens (Human))
Sequence (P08254 100-477): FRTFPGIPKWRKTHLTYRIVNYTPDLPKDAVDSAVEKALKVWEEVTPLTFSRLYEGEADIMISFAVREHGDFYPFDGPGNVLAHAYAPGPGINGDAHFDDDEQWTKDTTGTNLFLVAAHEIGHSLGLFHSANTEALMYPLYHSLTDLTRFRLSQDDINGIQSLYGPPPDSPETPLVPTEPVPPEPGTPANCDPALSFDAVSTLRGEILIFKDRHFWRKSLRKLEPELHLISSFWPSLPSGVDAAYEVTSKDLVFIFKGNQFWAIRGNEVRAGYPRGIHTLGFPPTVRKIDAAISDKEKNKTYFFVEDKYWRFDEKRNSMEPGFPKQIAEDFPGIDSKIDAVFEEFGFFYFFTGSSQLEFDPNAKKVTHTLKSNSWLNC
Protocol Details: Inhibition constant (Ki) on MMP-3h
Type: biochemical
Condition Info: read-out: Ki MMP-3h; human MMP-3
Listed next: entries and their corresponding Ki.

> print(dat)
                                chem.smiles  reported.result
1  O=C(O)CC[C@H](NC(=O)CCc1ccc(-c2cccs2)cc1)C(=O)N1CCC[C@@H](CC(=O)O)C1      > 100000 nM
2  NC(=O)[C@H](CCC(=O)O)NC(=O)[C@H](CCC(=O)O)NC(=O)CCc1ccc(-c2cccs2)cc1        > 1000 nM
3  NC(=O)[C@H](CO)NC(=O)[C@H](CCC(=O)O)NC(=O)CCc1ccc(-c2cccs2)cc1       > 10000 nM
4  NC(=O)[C@H](CCC(=O)O)NC(=O)[C@@H](CCC(=O)O)NC(=O)CCc1cc(-c2ccc(-c3cccc(Cl)c3)cc2)no1        > 1000 nM
5  NC(=O)CC[C@H](NC(=O)[C@H](CCC(N)=O)NC(=O)CCc1ccc(-c2ccccc2)cc1)C(N)=O        > 1000 nM

Indicate its recorded Ki; the molecule in question is "C[C@H](NC(=O)[C@H](CCC(=O)O)NC(=O)CCc1ccc(-c2cccs2)cc1)C(N)=O"
> 10000 nM

Output Ki of "NC(=O)[C@H](CCC(=O)O)NC(=O)CCc1cc(-c2ccccc2)no1"
> 10000 nM

Answer with the recorded Ki for the molecule listed here: "NCCCC[C@H](NC(=O)CCc1ccc(-c2ccc(-c3ccccc3)cc2)cc1)C(=O)N[C@@H](CCC(=O)O)C(N)=O"
300 nM

Query Ki for "NC(=O)CC[C@H](NC(=O)[C@H](CCC(=O)O)NC(=O)CCc1ccc(-c2cccs2)cc1)C(N)=O"
> 10000 nM

Look up and state reported Ki for "NC(=O)CC[C@H](NC(=O)[C@H](CCC(N)=O)NC(=O)CCc1cc(-c2ccc(-c3ccccc3)cc2)no1)C(N)=O"
> 10000 nM

Provide measured Ki value, entry: "NCCCC[C@H](NC(=O)[C@H](CCC(=O)O)NC(=O)CCc1ccc(-c2ccc(-c3ccccc3)cc2)cc1)C(N)=O"
> 1000 nM

Provide one value: measured Ki of "NC(=O)[C@H](Cc1c[nH]cn1)NC(=O)[C@H](CCC(=O)O)NC(=O)CCc1ccc(-c2cccs2)cc1"
> 10000 nM

Using known records, supply Ki for "O=C(O)CC[C@H](NC(=O)CCc1ccc(-c2ccc(-c3ccccc3)cc2)cc1)C(=O)N1CCC[C@@H](CC(=O)O)C1"
231 nM

Give Ki for the following molecule: "C[C@H](NC(=O)[C@H](CCC(=O)O)NC(=O)CCc1cc(-c2ccc(-c3ccccc3)cc2)no1)C(N)=O"
460 nM

Look up Ki of "NC(=O)[C@H](CCC(=O)O)NC(=O)[C@H](Cc1cnc[nH]1)NC(=O)CCc1ccc(-c2cc(-c3ccccc3)cs2)cc1" and report it.
> 10000 nM

---

Listed here: items and their measured Ki.
System Name: MMP-9h (Homo sapiens (Human), UniProt P14780)
Sequence (P14780 94-707): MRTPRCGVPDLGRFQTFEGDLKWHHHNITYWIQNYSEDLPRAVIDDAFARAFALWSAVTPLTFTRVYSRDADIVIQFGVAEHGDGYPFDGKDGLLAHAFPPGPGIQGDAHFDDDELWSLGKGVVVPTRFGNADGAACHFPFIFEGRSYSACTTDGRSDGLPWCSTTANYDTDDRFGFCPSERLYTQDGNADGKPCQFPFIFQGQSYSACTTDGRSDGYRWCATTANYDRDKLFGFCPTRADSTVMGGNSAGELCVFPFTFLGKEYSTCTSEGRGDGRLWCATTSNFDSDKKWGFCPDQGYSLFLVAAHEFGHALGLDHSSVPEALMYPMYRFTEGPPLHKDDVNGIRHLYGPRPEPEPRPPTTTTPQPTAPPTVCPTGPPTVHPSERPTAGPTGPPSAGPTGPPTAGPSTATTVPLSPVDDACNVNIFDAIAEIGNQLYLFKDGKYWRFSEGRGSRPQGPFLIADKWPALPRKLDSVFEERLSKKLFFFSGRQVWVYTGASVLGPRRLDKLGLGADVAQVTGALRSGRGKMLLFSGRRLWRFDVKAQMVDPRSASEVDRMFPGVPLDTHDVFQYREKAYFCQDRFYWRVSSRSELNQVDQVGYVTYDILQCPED
Protocol Details: Inhibition constant (Ki) on MMP-9h
Format: biochemical
Condition Info: read-out: Ki MMP-9h; human MMP-9

Answered examples (2):
> print(dat)
                                   molecule  reported.result
1  NC(=O)[C@H](Cc1c[nH]cn1)NC(=O)[C@H](CCC(=O)O)NC(=O)CCc1ccc(-c2ccccc2)cc1 [Compound 48]           > 5 µM
2  NC(=O)[C@H](CCC(=O)O)NC(=O)CCc1ccc(-c2cc(-c3ccccc3)cs2)cc1 [Compound 105]           > 1 µM

Dear colleague, please send me the reported Ki for NC(=O)[C@H](CC(=O)O)NC(=O)[C@H](CCC(=O)O)NC(=O)CCc1ccc(-c2ccc(-c3ccccc3)cc2)cc1 [Compound 64] when you can.
> 1 µM

Indicate the recorded Ki value for this molecule: NC(=O)[C@H](CCC(=O)O)NC(=O)[C@H](Cc1ccc(O)cc1)NC(=O)CCc1ccc(-c2ccc(-c3ccccc3)cc2)cc1 [Compound 75]
> 10 µM
